Source: PubChem BioAssay (Tox21)

Experiment: A CellTox Green Cytotoxicity Assay to monitor cytotoxicity in HEK293 cells - 24 hour (AID 1224875); further: nearly all actives have a fitted effect of over 45% in size
Settings: CellTox Green fluorescence; series mostly up to 76.8 µM
Records with an inconclusive call do not appear. The source made the active and inactive calls. The call rests on the fitted dose curve; in most records, active means well fitted activation curve with a large enough effect in the repeat runs; inconclusive means weak or mixed curves; inactive means flat fitted curve, though single readings scatter.
Labels: Y for active, N for inactive

{"compound": "CC(C)N(C(=O)COc1nnc(C(F)(F)F)s1)c1ccc(F)cc1", "label-class": "N"}
{"compound": "C[N+](C)(C)CCCl", "label-class": "N"}
{"compound": "CCCCNP(N)(N)=S", "label-class": "N"}
{"compound": "Brc1ccccc1", "label-class": "N"}
{"compound": "ClCc1cccc(Cl)c1", "label-class": "N"}
{"compound": "O=[N+]([O-])c1ccc(F)c([N+](=O)[O-])c1", "label-class": "N"}
{"compound": "COP(=S)(OC)Oc1cc(Cl)c(I)cc1Cl", "label-class": "N"}
{"compound": "CCn1cc[n+](C)c1", "label-class": "N"}
{"compound": "CN(N=O)c1ccc([N+](=O)[O-])cc1", "label-class": "N"}
{"compound": "O=C(CBr)Nc1ccc(Cl)cc1C(=O)c1ccccc1F", "label-class": "N"}
{"compound": "CCBr", "label-class": "N"}
{"compound": "Cc1ccccc1CCl", "label-class": "N"}
{"compound": "CCOP(=S)(OCC)SCn1nnc2ccccc2c1=O", "label-class": "N"}
{"compound": "CCCCOC(=O)c1ccccc1C(=O)OCc1ccccc1", "label-class": "N"}
{"compound": "CO/C=C(/C(=O)OC)c1ccccc1COc1cccc(C(F)(F)F)n1", "label-class": "N"}
{"compound": "O=[N+]([O-])C(Br)(CO)CO", "label-class": "N"}
{"compound": "C=CC(=O)OC(C)(C)C", "label-class": "N"}
{"compound": "c1ccoc1", "label-class": "N"}
{"compound": "CCOC(=O)C(Cl)C(C)=O (stereo not given)", "label-class": "N"}
{"compound": "ClP(Cl)(Cl)(Cl)Cl", "label-class": "N"}
{"compound": "[CH3][Sn]([CH3])([Cl])[Cl]", "label-class": "N"}
{"compound": "CCOS(C)(=O)=O", "label-class": "N"}
{"compound": "O=C(O)C1(c2ccc3c(c2)OC[C@H](Cc2ccc(-c4ccccc4)cc2)[C@H]3O)CCCC1", "label-class": "Y"}
{"compound": "CN(C)c1ccc(N(C)C)cc1", "label-class": "N"}
{"compound": "CC(Cl)C(C)Cl (stereo not given)", "label-class": "N"}
{"compound": "CCOP(=O)(OCC)Oc1ccc([N+](=O)[O-])cc1", "label-class": "N"}
{"compound": "NS(=O)(=O)C(F)(F)C(F)(F)C(F)(F)C(F)(F)C(F)(F)C(F)(F)C(F)(F)C(F)(F)F", "label-class": "N"}
{"compound": "O=S1(=O)OC(c2cc(Br)c(O)c(Br)c2)(c2cc(Br)c(O)c(Br)c2)c2ccccc21", "label-class": "N"}
{"compound": "CO/N=C(/C(=O)OC)c1ccccc1COc1ccccc1C", "label-class": "N"}
{"compound": "CC(=O)c1cc2c(cc1C)C(C)(C)C(C)CC2(C)C (stereo not given)", "label-class": "Y"}
{"compound": "CCCCCCC#N", "label-class": "N"}
{"compound": "C#CCOC(C(=O)OCCN(C)C)(c1ccccc1)c1ccccc1", "label-class": "N"}
{"compound": "COP(=S)(Oc1cc(Cl)c(Br)cc1Cl)c1ccccc1 (stereo not given)", "label-class": "N"}
{"compound": "CCCCN=C=O", "label-class": "N"}
{"compound": "CC1Sc2c(C(=O)O)c(=O)c3cc(F)c(N4CCNCC4)cc3n21 (stereo not given)", "label-class": "N"}
{"compound": "OC(c1ccc(Cl)cc1)(c1ccc(Cl)cc1)c1cccnc1", "label-class": "N"}
{"compound": "O=C(O)COc1ccc(Cl)cc1", "label-class": "N"}
{"compound": "O=C(NC(=O)c1c(F)cccc1F)Nc1ccc(OC(F)(F)C(F)OC(F)(F)F)c(Cl)c1 (stereo not given)", "label-class": "N"}
{"compound": "CC/C(=N\\OC/C=C/Cl)C1=C(O)CC(C2CCOCC2)CC1=O (stereo not given)", "label-class": "N"}
{"compound": "CCCC(=O)Cl", "label-class": "N"}
{"compound": "O=NN1CCCCCC1", "label-class": "N"}
{"compound": "CN1[C@@H]2CC[C@H]1CC(OC(=O)c1cc(Cl)cc(Cl)c1)C2 (stereo not given in full)", "label-class": "N"}
{"compound": "Cn1sc(Cl)cc1=O", "label-class": "N"}
{"compound": "O=C=Nc1ccc(Cl)cc1", "label-class": "N"}
{"compound": "O=C(CBr)c1ccccc1", "label-class": "N"}
{"compound": "c1ccc(CN2CCNCC2)cc1", "label-class": "N"}
{"compound": "COC(C)(C)CCC[C@H](C)C/C=C/C(C)=C/C(=O)OC(C)C", "label-class": "N"}
{"compound": "O=S(=O)(Cl)c1ccccc1", "label-class": "N"}
{"compound": "C[C@]12CC[C@H]3[C@@H](CCC4=CC(=O)CC[C@@H]43)[C@@H]1CC[C@@H]2OC(=O)CCC1CCCCC1", "label-class": "N"}
{"compound": "N#Cc1ccc(Cl)cc1", "label-class": "N"}
